The values you see were collected from patent US20200095340A1.

Biological target: biotinylated human DLL3 protein expressed as a human IgG1 fusion protein (human) (UniProt Q9NYJ7)
Sequence (Q9NYJ7 27-492): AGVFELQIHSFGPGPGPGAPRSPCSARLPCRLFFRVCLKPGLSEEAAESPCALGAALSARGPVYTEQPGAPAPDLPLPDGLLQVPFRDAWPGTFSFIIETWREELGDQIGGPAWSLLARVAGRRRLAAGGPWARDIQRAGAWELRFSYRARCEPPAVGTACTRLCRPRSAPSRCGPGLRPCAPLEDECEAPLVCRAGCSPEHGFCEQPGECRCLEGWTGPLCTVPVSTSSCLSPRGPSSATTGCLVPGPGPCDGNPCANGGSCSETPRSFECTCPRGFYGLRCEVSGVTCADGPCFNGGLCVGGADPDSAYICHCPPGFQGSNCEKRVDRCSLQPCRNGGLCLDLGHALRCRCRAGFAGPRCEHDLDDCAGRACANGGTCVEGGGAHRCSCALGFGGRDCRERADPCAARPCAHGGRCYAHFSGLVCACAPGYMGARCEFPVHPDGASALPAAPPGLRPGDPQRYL
Assay: Octet, biotinylated human DLL3-IgG1 fusion on streptavidin tips, single 50 nM, conditioned medium (relative KD)
Quick reference for Kd among some binders
Give a bare numeral; the unit nM is implied.

Notebook: anti-DLL3 trispecific protein, DLL3 binder 2B01 (protein, part only; not given: CD3 fragment and albumin sdAb, part only) chain, part: EVQLVESGGGLVQPGGSLTLSCVASGSTSLINAMGWYRRAPGKQRELVAGISSDGSKVYADSVKGRFTISRDNAKNSVYLQMNSLRAEDTAVYYCYYFRHVSGSSMRYWGQGTLVTVSSGGGGSGGGSGGGGSGGGSHHHHHH , Kd read as 10

Notebook: anti-DLL3 trispecific protein, DLL3 binder 1G06 (protein, part only; not given: anti-CD3 fragment and anti-albumin sdAb, part only) chain, part: EVQLVESGGGLVQPGGSLTLSCVASGSTSSINAIGWYRRAPGKQRELVAGISSDGSKVYAVSVKGRFTISRDNAKNSVYLQMNSLRAEDTAVYYCYYFRKVSGSSARYWGQGTLVTVSSGGGGSGGGSGGGGSGGGSHHHHHH , Kd read as 26

Notebook: anti-DLL3 trispecific protein, DLL3 binder 4A01 (protein, part only; not given: CD3 binder and albumin binder, part only) chain, part: EVQLVESGGGLVQPGGSLTLSCAASGSSVRFLSMAWYRQAPGKKRELVAGISQDGSTDYIDSVKGRFTISRDNAKNSVYLQMNSLRAEDTAVYYCYAYRWRTRYTYWGQGTLVTVSSGGGGSGGGSGGGGSGGGSHHHHHH , Kd read as 10

Notebook: anti-DLL3 trispecific protein, DLL3 binder 4F02 (protein, part only; not given: anti-CD3 fragment and anti-albumin domain, part only) chain, part: EVQLVESGGGLVQPGGSLTLSCAASGSTVSFLSMAWYRQAPGKKRELVAGISHDGSTDYIDSVKGRFTISRDNAKNSVYLQMNSLRAEDTAVYYCYAYRWTTRYTYWGQGTLVTVSSGGGGSGGGSGGGGSGGGSHHHHHH , Kd read as 15
